# experimental target: UniProtKB P43490
# Sequence (P43490 whole entry): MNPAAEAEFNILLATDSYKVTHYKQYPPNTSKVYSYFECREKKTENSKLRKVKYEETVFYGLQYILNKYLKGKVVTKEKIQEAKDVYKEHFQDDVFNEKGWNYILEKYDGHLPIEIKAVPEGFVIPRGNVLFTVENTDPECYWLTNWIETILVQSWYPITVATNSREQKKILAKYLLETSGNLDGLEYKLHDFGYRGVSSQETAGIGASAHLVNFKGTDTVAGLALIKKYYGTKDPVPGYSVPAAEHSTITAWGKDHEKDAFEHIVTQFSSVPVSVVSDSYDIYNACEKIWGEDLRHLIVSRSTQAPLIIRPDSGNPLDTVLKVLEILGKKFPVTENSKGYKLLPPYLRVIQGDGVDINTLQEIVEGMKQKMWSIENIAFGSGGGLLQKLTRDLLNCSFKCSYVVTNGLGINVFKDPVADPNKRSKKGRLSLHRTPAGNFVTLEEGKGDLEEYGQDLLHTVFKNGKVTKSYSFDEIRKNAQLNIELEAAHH
property label: IC50 (nM)
Quick reminder: number only, in nM, skip the unit.

Query :: Can you share its IC50? I mean this compound: "C[C@H]1C2C[C@H](C[C@@H]1NS(=O)(=O)c1ccc(NC(=O)NCc3cccnc3)cc1)C2(C)C"
Result :: 12
